These measurements were taken from ChEMBL document CHEMBL2163247.

Target: UniProt:P35968
Sequence (P35968 whole entry): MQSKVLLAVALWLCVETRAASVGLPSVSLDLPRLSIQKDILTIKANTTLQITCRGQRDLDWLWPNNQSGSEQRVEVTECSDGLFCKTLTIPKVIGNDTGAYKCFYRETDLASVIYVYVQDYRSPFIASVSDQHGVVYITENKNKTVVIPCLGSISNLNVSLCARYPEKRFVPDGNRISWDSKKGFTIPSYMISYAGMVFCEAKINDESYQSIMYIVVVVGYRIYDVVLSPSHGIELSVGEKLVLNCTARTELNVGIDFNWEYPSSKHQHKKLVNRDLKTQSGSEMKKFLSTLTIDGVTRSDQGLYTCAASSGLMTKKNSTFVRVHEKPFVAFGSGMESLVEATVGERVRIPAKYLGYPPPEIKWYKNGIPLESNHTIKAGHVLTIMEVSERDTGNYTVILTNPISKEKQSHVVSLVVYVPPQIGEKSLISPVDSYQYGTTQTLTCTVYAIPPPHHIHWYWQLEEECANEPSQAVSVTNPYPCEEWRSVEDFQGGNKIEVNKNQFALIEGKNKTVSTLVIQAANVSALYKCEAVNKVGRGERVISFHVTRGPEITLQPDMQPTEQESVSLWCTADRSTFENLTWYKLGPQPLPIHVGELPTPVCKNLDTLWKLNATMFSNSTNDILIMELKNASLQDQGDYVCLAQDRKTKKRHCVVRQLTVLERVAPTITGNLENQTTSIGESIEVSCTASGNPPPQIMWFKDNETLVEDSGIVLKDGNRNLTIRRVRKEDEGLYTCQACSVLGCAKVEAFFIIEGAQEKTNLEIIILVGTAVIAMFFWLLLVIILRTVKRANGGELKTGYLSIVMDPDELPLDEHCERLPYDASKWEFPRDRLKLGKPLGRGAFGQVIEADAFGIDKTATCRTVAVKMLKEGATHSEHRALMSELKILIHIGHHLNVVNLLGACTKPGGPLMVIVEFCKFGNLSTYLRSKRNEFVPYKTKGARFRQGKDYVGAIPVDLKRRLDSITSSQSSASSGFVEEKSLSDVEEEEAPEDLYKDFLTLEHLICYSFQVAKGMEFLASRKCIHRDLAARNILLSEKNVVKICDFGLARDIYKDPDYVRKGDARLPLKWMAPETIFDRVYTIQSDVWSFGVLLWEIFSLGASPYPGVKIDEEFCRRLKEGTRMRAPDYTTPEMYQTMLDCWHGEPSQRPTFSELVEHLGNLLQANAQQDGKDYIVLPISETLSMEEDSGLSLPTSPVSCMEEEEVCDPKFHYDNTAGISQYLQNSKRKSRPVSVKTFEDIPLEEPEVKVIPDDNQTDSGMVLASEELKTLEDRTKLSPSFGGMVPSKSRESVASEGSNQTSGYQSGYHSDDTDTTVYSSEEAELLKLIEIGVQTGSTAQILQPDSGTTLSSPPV
endpointLabel: Ki

-- ask Return Ki for the following molecule: "Oc1ccc2oc3ncc(O)c(-c4ccccc4)c3c2c1"
-- reply > 1000 µM

###

Target: CDK6/cyclin D1 (Homo sapiens, UniProt Q00534)
Sequence (P24385 whole entry): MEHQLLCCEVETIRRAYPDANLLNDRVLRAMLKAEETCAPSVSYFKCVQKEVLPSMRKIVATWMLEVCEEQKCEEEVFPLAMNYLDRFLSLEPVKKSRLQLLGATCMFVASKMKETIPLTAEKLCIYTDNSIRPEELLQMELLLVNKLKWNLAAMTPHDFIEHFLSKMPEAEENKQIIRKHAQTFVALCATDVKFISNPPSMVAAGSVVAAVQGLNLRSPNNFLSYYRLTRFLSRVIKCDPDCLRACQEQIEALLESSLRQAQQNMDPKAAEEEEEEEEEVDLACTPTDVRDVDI
Sequence (Q00534 whole entry): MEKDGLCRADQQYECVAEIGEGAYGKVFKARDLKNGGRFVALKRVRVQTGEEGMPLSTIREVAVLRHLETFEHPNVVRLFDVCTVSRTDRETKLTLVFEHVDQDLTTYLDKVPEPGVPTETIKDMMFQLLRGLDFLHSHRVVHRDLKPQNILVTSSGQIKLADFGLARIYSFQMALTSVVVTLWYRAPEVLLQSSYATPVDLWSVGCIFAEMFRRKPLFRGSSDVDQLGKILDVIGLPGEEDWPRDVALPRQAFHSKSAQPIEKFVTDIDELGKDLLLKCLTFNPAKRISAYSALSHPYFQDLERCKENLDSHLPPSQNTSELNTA
Assay: Inhibition of CDK6/Cyclin D1
endpointLabel: pKi
Just the number, please; pKi means minus log10 of the concentration in mol/L.

-- ask Return pKi for the following compound: "Oc1ccc2oc3ncc(O)c(-c4ccccc4)c3c2c1"
-- reply 3.11

###

Assay: Inhibition of CDK4/Cyclin D
Recorded Ki for the following molecules

Solved cases below.
INSERT INTO results (compoundstructurestring, val) VALUES
  ('COc1ccc2oc3ncc(O)c(-c4ccccc4)c3c2c1', '144 µM'),
  ('COc1cnc2oc3ccc(O)cc3c2c1-c1ccccc1', '93.6 µM'),
  ('COc1ccc2oc3ncc(OCc4ccccc4)c(-c4ccccc4)c3c2c1', '> 1000 µM');

-- ask Return Ki for the following molecule: "Oc1ccc2oc3ncc(OCc4ccccc4)c(-c4ccccc4)c3c2c1"
-- reply 36.6 µM

-- ask Return Ki for the following molecule: "Oc1ccc2oc3ncc(O)c(-c4ccccc4)c3c2c1"
-- reply 18.5 µM

-- ask Return Ki for the following molecule: "COc1ccc2oc3ncc(OC)c(-c4ccccc4)c3c2c1"
-- reply > 1000 µM

###

Target: Cyclin-dependent kinase 1/cyclin B1 (Homo sapiens, UniProt P06493)
Sequence (P06493 whole entry): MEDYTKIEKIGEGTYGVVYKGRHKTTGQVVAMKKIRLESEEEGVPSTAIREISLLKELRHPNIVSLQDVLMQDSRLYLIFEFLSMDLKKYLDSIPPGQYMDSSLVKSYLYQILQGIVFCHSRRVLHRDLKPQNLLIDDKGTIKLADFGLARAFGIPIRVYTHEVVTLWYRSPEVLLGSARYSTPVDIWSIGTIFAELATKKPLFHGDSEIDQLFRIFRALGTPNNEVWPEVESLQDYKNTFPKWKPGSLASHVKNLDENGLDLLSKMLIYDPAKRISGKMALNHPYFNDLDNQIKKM
Sequence (P14635 whole entry, further chain): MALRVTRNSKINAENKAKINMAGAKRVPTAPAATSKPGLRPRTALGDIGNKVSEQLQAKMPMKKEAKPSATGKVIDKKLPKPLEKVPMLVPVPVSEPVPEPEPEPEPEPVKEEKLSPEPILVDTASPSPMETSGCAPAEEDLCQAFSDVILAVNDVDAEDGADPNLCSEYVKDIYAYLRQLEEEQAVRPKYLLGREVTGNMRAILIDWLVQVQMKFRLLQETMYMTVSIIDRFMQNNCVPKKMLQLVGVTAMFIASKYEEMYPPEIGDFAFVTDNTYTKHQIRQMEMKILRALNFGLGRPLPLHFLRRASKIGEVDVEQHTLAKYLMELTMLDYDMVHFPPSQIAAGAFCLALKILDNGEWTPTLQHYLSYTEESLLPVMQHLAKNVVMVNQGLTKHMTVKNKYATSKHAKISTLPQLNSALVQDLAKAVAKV
Test: Inhibition of CDK1/Cyclin B
Recorded Ki for the following compounds

Solved cases below.
INSERT INTO measurements (compoundstructurestring, val) VALUES
  ('COc1ccc2oc3ncc(O)c(-c4ccccc4)c3c2c1', '> 1000 µM'),
  ('COc1ccc2oc3ncc(OC)c(-c4ccccc4)c3c2c1', '> 1000 µM');

# input for lookup
-- ask Return Ki for the following compound: "COc1ccc2oc3ncc(OCc4ccccc4)c(-c4ccccc4)c3c2c1"
-- reply > 1000 µM

###

Recorded Ki for the following compounds
Molecular target: Cyclin-dependent kinase 2/cyclin E (Homo sapiens, UniProt P24941)
Assay: Inhibition of CDK2/Cyclin E

-- ask Return Ki for the following compound: "COc1ccc2oc3ncc(OCc4ccccc4)c(-c4ccccc4)c3c2c1"
-- reply > 1 mM

-- ask Return Ki for the following compound: "COc1ccc2oc3ncc(OC)c(-c4ccccc4)c3c2c1"
-- reply > 1 mM

-- ask Return Ki for the following compound: "COc1ccc2oc3ncc(O)c(-c4ccccc4)c3c2c1"
-- reply > 1 mM
